// reported Absolute IC50, neutralizing RSV A2 (HEp-2 cells, indirect ELISA) per item
molecular target: RSV-F protein of RSV A2 virus (as carried by the live virus in the neutralisation assay) (human respiratory syncytial virus, …, UniProt P03420 26-574); assay: cell-based or functional assay
Sequence (P03420 26-574): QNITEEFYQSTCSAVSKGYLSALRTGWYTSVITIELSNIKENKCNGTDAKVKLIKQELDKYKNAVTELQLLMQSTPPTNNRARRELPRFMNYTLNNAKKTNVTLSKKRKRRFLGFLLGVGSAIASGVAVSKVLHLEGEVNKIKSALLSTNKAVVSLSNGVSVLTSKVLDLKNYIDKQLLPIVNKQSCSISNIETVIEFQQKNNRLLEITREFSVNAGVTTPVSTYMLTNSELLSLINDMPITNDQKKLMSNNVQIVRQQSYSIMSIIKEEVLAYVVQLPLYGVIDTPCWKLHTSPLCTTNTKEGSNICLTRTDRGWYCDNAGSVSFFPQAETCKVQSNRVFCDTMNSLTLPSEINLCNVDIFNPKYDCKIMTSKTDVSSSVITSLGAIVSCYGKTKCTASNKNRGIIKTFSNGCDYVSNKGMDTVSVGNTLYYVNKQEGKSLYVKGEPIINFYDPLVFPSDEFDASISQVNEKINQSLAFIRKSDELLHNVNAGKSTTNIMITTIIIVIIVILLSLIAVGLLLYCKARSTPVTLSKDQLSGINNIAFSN
ATTRIBUTE_MEASURED: Absolute IC50, neutralizing RSV A2 (HEp-2 cells, indirect ELISA) (µg/mL)

BINDER	MEASURE_UNIT	ASSAY_RESULT
R1-11C3QH (antibody, human IgG1, kappa, V domains shown, also called chimeric antibody of R1-11C3) VH: EVQLEESGAELVRSGASVKLSCTASGFNIKDYYMHWVKQRPEQGLEWIGWIDPENGDTEYAPKFQGKATLTADTSSNTAYLQLSTLTSEDNAVYYCNAAYYGDYVEDMDYWGQGTSVTVSS VL: DIVMTQTPLSLSVSLGDQASISCRSSQSIVHSDGNTFLEWYLQKPGQSPKLLIYKVSNRFSGVPDRFSGSGSGTDFTLKISRVEAEDLGVYYCFQASHLPRTFGGGTKLEIKR	µg/mL	0.118
R18-22D7QH (antibody, human IgG1, kappa, V domains shown, also called chimeric antibody of R18-22D7) VH: EVKLLESGGGLVQPGGSLKLSCAASGFDFSRYWMSWVRQAPGKGLEWIGEINPDSSTINYTPSLKDKFIISRDNAKNTLYLQMSKVRSEDTALYYCARRGGISYAMDYWGQGTSVTVSS VL: DIVITQDELSNPVTSGESVSISCRSSKSLLYKDGKTYLNWFLQRPGQSPQLLIYLMSTRASGVSDRFSGSGSGTDFTLEISRVKAEDVGVYYCQQLVEYPRTFGGGTKLEIKR	µg/mL	0.03
R3-38B6QH (antibody, human IgG1, kappa, V domains shown, also called chimeric antibody of R3-38B6) VH: QVQLEESGPELVKPGASVKISCKASGYAFSSSWMNWVKQRPGQGLEWIGRIYPGDGDTQYHGKVKGKATLTADKSSSTAYMQVSSLTSVDSAVYFCAREGGMITSNGYYHALDYWGQGTSVTVSS VL: DIVMTQTTASLAVSQGQRATISCSASESVDSYGNSFMNWYQQKPGQPPKVLIYLASNLESGVPARFSGSGSRTDFTLTIDPVEADDAATYYCQQNNEDPTFGGGTKLEIKR	µg/mL	0.0176
